Attribution: patent US20190144550A1

Readings of Kd for the listed binders
Target: T1, Monomeric 8-histidine tagged human EGFRvIII extracellular domain (human, UniProt P00533 298-645)
T1 construct: Analyte in all SPR assays; not shown: 8-histidine tag
Test: SPR, captured by anti-mouse Fc, 37 C
Write the value in nM as a bare number.

BINDER: 42G9 (antibody, V domains shown, Hybridoma supernatant (AlivaMab mouse); captured/detected via mouse Fc; also called mAb 42G9) VH: QVTLKESGPVLLKPTETLTLTCTVSGFSLSNPRMGVSWIRQPPGKALEWFAHIFSTDEKSLKLSLRSRLTLSKDTSKSQVVLTMTNMAPVDSATYYCARDSSNYEGYFDFWGQGTLVTVSS VL: EVVLTQSPATLSVSPGERATLSCRASQSVRSNLAWYQQKSGQAPRLLIYGSTIRATGVPARFSGSGSGTEFTLTISSLQSEDFAVYYCQQYSDWPFTFGPGTKVDIK
TEST RESULT: 8.2

Kindly consider the entry below.
Qu. Using known records, supply Kd for 11B11 (antibody, V domains shown, Hybridoma supernatant (AlivaMab mouse); captured/detected via mouse Fc) VH: QVTLKESGPVLVKPTETLTLTCTVSGFSLSNAKMGVSWIRQPPGKALEWLAHIFSTDEKSIRRSLRSRLTMSKDTSKSQVVLTMTNMDPVDTATYYCVRDSSNYEGYFDYWGQGTLVTVSS VL: EVLMTQSPATLSVSPGERATLSCRASQSVSTNFAWYQQRPGQAPRLLLFGASTRATGIPGRFSGSGSGTENILTISSLQSEDFAIYFCQQYKDWPFTFGPGSKVEIK
Ans. 21.7
